I'd appreciate it if you could supply IC50 values for the items below.
tested on: EW-3; experiment: cells; format: functional, cell-based; conditions: Homo sapiens;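 also: cell viability assay read-out, IC50 reflects inhibition of growth of the EW-3 cells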
Description: SANGER: Inhibition of human EW-3 cell growth in a cell viability assay.
Expressed in µM, but write only the number.

**Query** Record request: IC50 value, item COc1cc(F)c(F)c(Nc2ccc(I)cc2F)c1NS(=O)(=O)C1(CC(O)CO)CC1 (stereo not drawn)
**Result** 0.103

**Query** Endpoint output: IC50 of COc1cc([C@@H]2c3cc4c(cc3[C@@H](O[C@@H]3O[C@@H]5CO[C@@H](C)O[C@H]5[C@H](O)[C@H]3O)[C@H]3COC(=O)[C@H]23)OCO4)cc(OC)c1O [ETOPOSIDE] . Value?
**Result** 14.3
